Could you please report measured pEC50 for the items listed next?
Biological target: IRAK4 (Homo sapiens)
Construct: endogenous in cells
Sequence (Q9NWZ3 1-460): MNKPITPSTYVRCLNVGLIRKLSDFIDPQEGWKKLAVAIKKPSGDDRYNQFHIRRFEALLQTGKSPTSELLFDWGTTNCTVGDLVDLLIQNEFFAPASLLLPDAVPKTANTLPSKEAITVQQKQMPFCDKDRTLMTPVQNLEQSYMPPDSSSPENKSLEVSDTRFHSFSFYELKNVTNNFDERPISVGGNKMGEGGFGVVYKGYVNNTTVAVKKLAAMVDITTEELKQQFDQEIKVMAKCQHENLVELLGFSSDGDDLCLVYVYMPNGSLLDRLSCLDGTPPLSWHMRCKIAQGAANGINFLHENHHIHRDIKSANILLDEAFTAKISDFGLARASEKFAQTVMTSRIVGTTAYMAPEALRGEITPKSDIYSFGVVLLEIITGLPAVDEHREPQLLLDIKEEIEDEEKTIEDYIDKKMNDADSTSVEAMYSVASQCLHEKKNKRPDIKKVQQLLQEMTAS
Assay: ALE THP1 HTRF (Advanced Lipoxidation End Product THP1 Homogeneous Time Resolved Fluorescence)
Details: THP1 cells
Notebook: values listed as pEC50 are -log10 of the concentration (mol/L).

Tested system IRAK4 (Homo sapiens); pEC50 recorded for C[C@H](C#N)Nc1cc(-n2ncc3cc(C#N)cnc32)ncc1C(=O)N[C@H]1CC[C@H](CCN2[C@@H]3C[C@H]2CN(c2ccc(C4CCC(=O)NC4=O)cc2)C3)CC1 (some centres unmarked) was 7.20

Tested system IRAK4 (Homo sapiens); pEC50 recorded for CC1(Nc2cc(-n3ncc4cc(C#N)cnc43)ncc2C(=O)NC2CCC(CCN3CCN(c4ccc(C5CCC(=O)NC5=O)cc4)CC3)CC2)CC1 (centres unmarked) was 8.15

Tested system IRAK4 (Homo sapiens); pEC50 recorded for C[C@H]1CN(CC[C@H]2CC[C@H](NC(=O)c3cnc(-n4ncc5cc(C#N)cnc54)cc3NC3CC3)CC2)CCN1c1ccc(C2CCC(=O)NC2=O)cc1 (some centres unmarked) was 7.89

Tested system IRAK4 (Homo sapiens); pEC50 recorded for C[C@H](C#N)Nc1cc(-n2ncc3cc(C#N)cnc32)ncc1C(=O)N[C@H]1CC[C@H](CCN2CCC(c3ccc(C4CCC(=O)NC4=O)cc3)CC2)CC1 (some centres unmarked) was 8.40

Tested system IRAK4 (Homo sapiens); pEC50 recorded for N#Cc1cnc2c(cnn2-c2cc(NC3CC3)c(C(=O)N[C@H]3CC[C@H]([C@@H]4C[C@H]4N4CCN(c5ccc(C6CCC(=O)NC6=O)cc5)CC4)CC3)cn2)c1 (relative stereo) was 7.62

Tested system IRAK4 (Homo sapiens); pEC50 recorded for CC1(Nc2cc(-n3ncc4cc(C#N)cnc43)ncc2C(=O)NC2CCC(C(=O)N3CCN(c4ccc5c(c4)C(=O)N(C4CCC(=O)NC4=O)C5)CC3)CC2)CC1 (centres unmarked) was 7.92

Tested system IRAK4 (Homo sapiens); pEC50 recorded for CCNc1cc(-n2ncc3cc(C#N)cnc32)ncc1C(=O)NC1CCC(CCN2CCN(c3ccc(C4CCC(=O)NC4=O)cc3)CC2)CC1 (centres unmarked) was 8.10

Tested system IRAK4 (Homo sapiens); pEC50 recorded for N#Cc1cnc2c(cnn2-c2cc(NC3CCCC3)c(C(=O)N[C@H]3CC[C@H](CN4CCC(COc5ccc(C6CCC(=O)NC6=O)cc5)CC4)CC3)cn2)c1 (some centres unmarked) was 6.38

Tested system IRAK4 (Homo sapiens); pEC50 recorded for C[C@H](C#N)Nc1cc(-n2ncc3cnc(N)nc32)ncc1C(=O)N[C@H]1CC[C@H](CCN2CCN(c3ccc(C4CCC(=O)NC4=O)cc3)CC2)CC1 (some centres unmarked) was 8.15

Tested system IRAK4 (Homo sapiens); pEC50 recorded for N#Cc1cnc2c(cnn2-c2cc(NC3CC3)c(C(=O)N[C@H]3CC[C@H](C(=O)NC4CCN(c5ccc6c(c5)CN(C5CCC(=O)NC5=O)C6=O)CC4)CC3)cn2)c1 (some centres unmarked) was 7.33

Tested system IRAK4 (Homo sapiens); pEC50 recorded for N#Cc1cnc2c(cnn2-c2cc(NC3CC3)c(C(=O)NC3CCC(CCN4CCN(c5ccc(C6CCC(=O)NC6=O)cn5)CC4)CC3)cn2)c1 (centres unmarked) was 7.77

Tested system IRAK4 (Homo sapiens); pEC50 recorded for CC(C)Nc1cc(-n2ncc3cc(C#N)cnc32)ncc1C(=O)N[C@H]1CC[C@H](CN2CCN(c3ccc4c(c3)C(=O)N(C3CCC(=O)NC3=O)C4)CC2)CC1 (some centres unmarked) was 7.59

Tested system IRAK4 (Homo sapiens); pEC50 recorded for N#Cc1cnn2c(-c3cc(NC4CCCC4)c(C(=O)NC4CCC(CCN5CCN(c6ccc(C7CCC(=O)NC7=O)cc6)CC5)CC4)cn3)ccc2c1 (centres unmarked) was 7.21

Tested system IRAK4 (Homo sapiens); pEC50 recorded for C[C@@H]1CN(c2ccc3c(c2)C(=O)N(C2CCC(=O)NC2=O)C3=O)C[C@H](C)N1C(=O)C1CCC(NC(=O)c2cnc(-n3ncc4cc(C#N)cnc43)cc2NC2CCCC2)CC1 (some centres unmarked) was 7.09

Tested system IRAK4 (Homo sapiens); pEC50 recorded for N#Cc1cnc2c(ccn2-c2cc(NC3CCCC3)c(C(=O)NC3CCC(C(=O)N4CCN(c5ccc6c(c5)C(=O)N(C5CCC(=O)NC5=O)C6=O)CC4)CC3)cn2)c1 (centres unmarked) was 7.74

Tested system IRAK4 (Homo sapiens); pEC50 recorded for CCC1(Nc2cc(-n3ncc4cc(C#N)cnc43)ncc2C(=O)N[C@H]2CC[C@H](CCN3CCN(c4ccc(C5CCC(=O)NC5=O)cc4)CC3)CC2)CC1 (some centres unmarked) was 7.60
